These entries and their values trace back to ChEMBL document CHEMBL4043247.

TEST_DESCRIPTION: Antioxidant activity assessed as DPPH radical scavenging activity incubated for 30 mins under dark condition by UV-vis spectrophotometric method
Format: functional
pIC50: −log10 of the molar value.
# label = class 1 if pIC50 >= 5 else class 0

STRUCTURE_NOTATION	GROUP_LABEL
N/N=C1/c2cc(-c3ccc(C(=O)O)cc3)ccc2-n2c1nc1ccccc1c2=O	class 0
CC(/C=C(\O)c1ccccc1)=N\N=C1\c2cc(-c3ccncc3)ccc2-n2c1nc1ccccc1c2=O	class 1
N/N=C1/c2cc([N+](=O)[O-])ccc2-n2c1nc1ccccc1c2=O	class 0

Could you now look at the following molecule, please?
Query: Check if pIC50 >= 5 (inclusive). Item: `CC(/C=C(\O)c1ccccc1)=N\N=C1\c2cc([N+](=O)[O-])ccc2-n2c1nc1ccccc1c2=O`
Reply: class 0
